Each entry below carries its reported Km.
test: Glucuronidation by pooled human liver microsomes (HLM), UDPGA-supplemented; format: in vitro ADME; details: human, pooled liver microsomes, probe substrate glucuronidation, read-out: Km

- compound: "Cc1cn([C@H]2C[C@H](N=[N+]=[N-])[C@@H](CO)O2)c(=O)[nH]c1=O [AZT, zidovudine, reference compound]"
  Km / µM: 4360
- compound: "C[C@H](CCC(=O)O)[C@H]1CC[C@H]2[C@@H]3[C@H](O)C[C@@H]4C[C@H](O)CC[C@]4(C)[C@H]3CC[C@]12C [CDCA, chenodeoxycholic acid, reference compound]"
  Km / µM: 14.3

====

assay: Glucuronidation by rabbit liver microsomes (RaLM); format: in vitro ADME; conditions: rabbit, liver microsomes, pH 7.4, formation of G2 (7-O-glucuronide), read-out: Km or S50

- structure.notation: "COc1ccc(-c2oc3c(CCC(C)(C)O)c(O)cc(O)c3c(=O)c2O)cc1"
  units.label: "µM"
  Km: 3.29

====

assay: Glucuronidation by dog liver microsomes (DLM); type: in vitro ADME; details: dog, liver microsomes, pH 7.4, formation of G1 (3-O-glucuronide), read-out: Km or S50

- structure.notation: "COc1ccc(-c2oc3c(CCC(C)(C)O)c(O)cc(O)c3c(=O)c2O)cc1"
  Km: "1.11 µM"

====

biological target: UGT1A3 (Homo sapiens, UniProt P35503); construct: purchased Corning Biosciences; assay: Glucuronidation by expressed UGT1A3; format: in vitro ADME; conditions: human, expressed UGT1A3 (Supersome); probe substrate glucuronidation; UGT1A3
Sequence (P35503 29-534): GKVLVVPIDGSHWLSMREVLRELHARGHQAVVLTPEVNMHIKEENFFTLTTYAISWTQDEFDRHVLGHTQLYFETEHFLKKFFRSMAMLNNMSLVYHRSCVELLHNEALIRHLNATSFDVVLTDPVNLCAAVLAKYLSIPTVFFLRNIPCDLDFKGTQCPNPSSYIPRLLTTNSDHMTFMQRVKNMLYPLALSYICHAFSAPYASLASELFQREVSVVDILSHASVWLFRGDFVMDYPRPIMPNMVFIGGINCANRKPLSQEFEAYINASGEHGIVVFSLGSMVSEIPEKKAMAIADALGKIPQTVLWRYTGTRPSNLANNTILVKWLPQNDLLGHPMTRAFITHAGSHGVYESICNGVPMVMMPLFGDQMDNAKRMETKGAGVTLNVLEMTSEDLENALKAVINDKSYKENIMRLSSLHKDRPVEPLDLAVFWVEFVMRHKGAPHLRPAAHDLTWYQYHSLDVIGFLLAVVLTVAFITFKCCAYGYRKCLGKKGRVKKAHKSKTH

- compound: "C[C@H](CCC(=O)O)[C@H]1CC[C@H]2[C@@H]3[C@H](O)C[C@@H]4C[C@H](O)CC[C@]4(C)[C@H]3CC[C@]12C [CDCA, chenodeoxycholic acid, reference compound]"
  assay.target: "UGT1A3 (Homo sapiens, UniProt P35503)"
  microsomal CLint / µL/min/mg: 18.5

====

test: Glucuronidation by human intestine microsomes (HIM); format: in vitro ADME; conditions: human, intestine microsomes, pH 7.4, formation of G2 (7-O-glucuronide), read-out: Km or S50

- structure.notation: "COc1ccc(-c2oc3c(CCC(C)(C)O)c(O)cc(O)c3c(=O)c2O)cc1"
  units.label: "µM"
  Km: 5.91

====

experiment: Glucuronidation by guinea pig liver microsomes (GpLM); format: in vitro ADME; settings: guinea pig, liver microsomes, pH 7.4, formation of G1 (3-O-glucuronide), read-out: Km or S50
attribute.measured: Km (µM)

- molecule: "COc1ccc(-c2oc3c(CCC(C)(C)O)c(O)cc(O)c3c(=O)c2O)cc1 [wushanicaritin]"
  attribute.measured: "Km"
  reported: 2.53

====

molecular target: UniProt P22309; assay: Glucuronidation by expressed UGT1A1
Sequence (P22309 26-533): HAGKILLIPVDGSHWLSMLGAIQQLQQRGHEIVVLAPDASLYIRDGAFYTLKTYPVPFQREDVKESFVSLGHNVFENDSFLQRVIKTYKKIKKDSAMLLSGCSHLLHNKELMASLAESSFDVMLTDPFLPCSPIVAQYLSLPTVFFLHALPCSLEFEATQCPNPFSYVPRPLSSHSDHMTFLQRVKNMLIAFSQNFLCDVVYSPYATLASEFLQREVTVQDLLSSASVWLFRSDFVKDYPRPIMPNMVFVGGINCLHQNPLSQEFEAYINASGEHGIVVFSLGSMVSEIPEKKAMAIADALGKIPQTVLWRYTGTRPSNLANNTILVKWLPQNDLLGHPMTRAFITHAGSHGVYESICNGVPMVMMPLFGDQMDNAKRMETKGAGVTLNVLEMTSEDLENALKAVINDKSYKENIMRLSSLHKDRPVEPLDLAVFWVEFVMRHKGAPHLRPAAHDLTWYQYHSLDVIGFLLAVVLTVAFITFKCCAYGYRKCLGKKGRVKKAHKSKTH

- molecule: "C[C@]12CC[C@@H]3c4ccc(O)cc4CC[C@H]3[C@@H]1CC[C@@H]2O [β-estradiol, reference compound]"
  assay.target: "UniProt P22309"
  Km: "25.3 µM"

====

test: Glucuronidation by dog liver microsomes (DLM); format: in vitro ADME; settings: dog, liver microsomes, pH 7.4, formation of G2 (7-O-glucuronide), read-out: Km or S50

- compound: "COc1ccc(-c2oc3c(CCC(C)(C)O)c(O)cc(O)c3c(=O)c2O)cc1 [wushanicaritin]"
  Km: "1.17 µM"
